Let's go through some recorded pKd values for Carbonic anhydrase 2 (Bos taurus, UniProt P00921) together.
API: returns pKd as number; meaning -log10 of concentration in mol/L.

**Query** Which pKd value is on record for CC(C)[C@@H](C(=O)N1CC2CCC(CC2)C1)n1cc(-c2ccc(S(N)(=O)=O)cc2)nn1 ?
**Result** 9.70

Please look at the following compound next.
**Query** So what does the record say about pKd for C#Cc1ccc(S(N)(=O)=O)cc1 ?
**Result** 7.43

* * *

Heads up, these compounds all have IC50 values measured for UniProt O14965.
Sequence (O14965 whole entry): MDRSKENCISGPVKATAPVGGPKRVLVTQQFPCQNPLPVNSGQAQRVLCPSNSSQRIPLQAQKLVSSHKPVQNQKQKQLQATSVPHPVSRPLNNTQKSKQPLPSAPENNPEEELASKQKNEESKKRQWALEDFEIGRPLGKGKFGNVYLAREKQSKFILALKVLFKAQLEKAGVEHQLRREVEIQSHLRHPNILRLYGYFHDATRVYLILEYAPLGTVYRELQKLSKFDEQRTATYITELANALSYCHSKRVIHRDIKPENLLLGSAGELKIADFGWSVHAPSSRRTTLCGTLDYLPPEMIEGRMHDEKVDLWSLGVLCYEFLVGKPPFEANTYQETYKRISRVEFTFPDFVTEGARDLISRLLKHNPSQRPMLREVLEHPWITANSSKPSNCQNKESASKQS
Give your result in µM as a bare value.

**Query** // fetch UniProt O14965 IC50 for Nc1ccc(S(=O)(=O)Nc2ncccn2)cc1 [SULFADIAZINE]
**Result** 21

Note: attention shifts to another entry.
**Query** Any idea what IC50 came out for COc1cc2[nH]c3ncnc(N4CCN(C(=S)Nc5ccc(S(=O)(=O)Nc6ncccn6)cc5)CC4)c3c2cc1OC on UniProt O14965?
**Result** 0.094

* * *

- TARGET DESC: Heat shock protein HSP 90-beta (Homo sapiens)
- Sequence (P08238 whole entry): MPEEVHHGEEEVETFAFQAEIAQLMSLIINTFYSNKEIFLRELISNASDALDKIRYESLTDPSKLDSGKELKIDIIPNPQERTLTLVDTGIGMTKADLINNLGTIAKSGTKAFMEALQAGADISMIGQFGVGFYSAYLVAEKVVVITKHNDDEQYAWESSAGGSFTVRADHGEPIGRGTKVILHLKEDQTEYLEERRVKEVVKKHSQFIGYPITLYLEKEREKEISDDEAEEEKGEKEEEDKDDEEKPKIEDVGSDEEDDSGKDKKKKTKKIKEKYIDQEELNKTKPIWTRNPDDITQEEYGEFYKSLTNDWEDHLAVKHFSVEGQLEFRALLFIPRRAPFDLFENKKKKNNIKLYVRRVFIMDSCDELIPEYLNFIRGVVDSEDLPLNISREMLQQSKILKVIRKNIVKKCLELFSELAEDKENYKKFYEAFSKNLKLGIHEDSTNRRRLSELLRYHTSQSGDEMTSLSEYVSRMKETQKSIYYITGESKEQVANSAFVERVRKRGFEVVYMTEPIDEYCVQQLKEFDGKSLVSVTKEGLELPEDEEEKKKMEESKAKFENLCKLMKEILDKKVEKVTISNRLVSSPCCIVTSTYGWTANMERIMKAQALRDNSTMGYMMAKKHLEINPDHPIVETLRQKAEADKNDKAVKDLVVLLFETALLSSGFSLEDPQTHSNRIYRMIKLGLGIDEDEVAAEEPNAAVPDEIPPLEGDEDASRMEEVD
OBSERVATION TYPE: Kd (µM)
Give your result in µM as a bare value.

**Query** Write down the reported Kd of O=C1OCC/C1=C\Nc1ccccc1 , test system: Heat shock protein HSP 90-beta (Homo sapiens).
**Result** 150
